From: paper PMC11065314

# assay text: Quantification of viable NP cells (LIVE/DEAD staining)
# Format: cell-based, human
# condition label: both sexes, human; 500 μM, 1 mM and 2 mM, day 3 post-treatment, either donor; read-out: Percentage of viable cells
Counter-ions that a name gives are not always drawn.
observable: viability at 3 days

* Cc1ncc(CO)c(CO)c1O [Pyr, Pyridoxine hydrochloride] | > 89%
